molecular target: [V390I/Y410E/E274V]-CfEcR (Choristoneura fumiferana, UniProt O77240); construct: assay construct b835; format: cell-based; details: S, 3T3 Cells
pEC50: −log10 of the molar value.
value_type: pEC50

Here's what some known entries look like.
* CCC[C@H](N(NC(=O)c1ccc(CC)cc1)C(=O)c1cc(C)cc(C)c1)C(C)(C)C | ~7.70
* CCC[C@H](N(NC(=O)c1ccccc1Cl)C(=O)c1cc(C)cc(C)c1)C(C)(C)C | ~7.70
* CCC[C@H](N(NC(=O)c1ccccc1C)C(=O)c1cc(C)cc(C)c1)C(C)(C)C | ~6.40
* CCC[C@H](N(NC(=O)c1cccc(OC)c1CC)C(=O)c1cc(C)cc(C)c1)C(C)(C)C | ~7.52
* CCC[C@H](N(NC(=O)c1cc(C)oc1C)C(=O)c1cc(C)cc(C)c1)C(C)(C)C | ~5.70

# ---- query compound ----
Note down pEC50 recorded for "CCC[C@H](N(NC(=O)c1c(F)cccc1F)C(=O)c1cc(C)cc(C)c1)C(C)(C)C"
~7.70

###

biological target: [V390I/Y410E/E274V]-CfEcR (Choristoneura fumiferana, UniProt O77240); construct: assay construct b835; assay type: cell-based; details: R, 3T3 Cells
pEC50: −log10 of the molar value.
Reported pEC50 values for a set of compounds

• CCC[C@@H](N(NC(=O)c1ccccc1F)C(=O)c1cc(C)cc(C)c1)C(C)(C)C = ~9.10
• CCC[C@@H](N(NC(=O)c1cc(OC)c(C)c(OC)c1)C(=O)c1cc(C)cc(C)c1)C(C)(C)C = ~5.70
• CCC[C@@H](N(NC(=O)c1ccc2c(c1C)OCCO2)C(=O)c1cc(C)cc(C)c1)C(C)(C)C = ~10.40

Note down pEC50 recorded for "CCC[C@@H](N(NC(=O)c1cccc(Cl)c1)C(=O)c1cc(C)cc(C)c1)C(C)(C)C"
~8.52

Note down pEC50 recorded for "CCC[C@@H](N(NC(=O)c1ccc(OC)c(OC)c1)C(=O)c1cc(C)cc(C)c1)C(C)(C)C"
~6.52

###

molecular target: wild-type Choristoneura fumiferana EcR (D, E and F domains) (Choristoneura fumiferana, UniProt O77240); format: cell-based; details: rac; WT-CtEcR, 3T3 Cells; read-out: EC50
pEC50: −log10 of the molar value.
Reported pEC50 values for a set of compounds

Here's what some known entries look like.
- CCCC(N(NC(=O)c1ccc(Cl)cc1)C(=O)c1cc(C)cc(C)c1)C(C)(C)C (racemic) [rac-14]: ~6.70
- CCCC(N(NC(=O)c1ccccc1OC)C(=O)c1cc(C)cc(C)c1)C(C)(C)C (racemic) [rac-4]: ~5.70
- CCCC(N(NC(=O)c1cccc(OC)c1CC)C(=O)c1cc(C)cc(C)c1)C(C)(C)C (racemic) [rac-2]: ~7.00
- C=CCC(CCc1ccccc1)N(NC(=O)c1ccc(CC)cc1)C(=O)c1cc(C)cc(C)c1 (racemic) [rac-62]: ~5.30
- CCCC(N(NC(=O)c1ccc(C)cc1)C(=O)c1cc(C)cc(C)c1)C(C)(C)C (racemic) [rac-11]: 7.05

Note down pEC50 recorded for CCCC(N(NC(=O)c1cccc(Cl)c1)C(=O)c1cc(C)cc(C)c1)C(C)(C)C (racemic) [rac-10]
~7.00

Note down pEC50 recorded for C=CCC(C1CCCCC1)N(NC(=O)c1cccc(OC)c1C)C(=O)c1cc(C)cc(C)c1 (racemic) [rac-60]
~6.00

Note down pEC50 recorded for CCCC(N(NC(=O)c1ccc2c(c1C)OCO2)C(=O)c1cc(C)cc(C)c1)C(C)(C)C (racemic) [rac-20]
7.00

Note down pEC50 recorded for CCCC(N(NC(=O)c1ccc(CC)cc1)C(=O)c1cc(C)cc(C)c1)C(C)(C)C (racemic) [rac-12]
~7.70

Note down pEC50 recorded for CCCC(N(NC(=O)c1ccccc1Br)C(=O)c1cc(C)cc(C)c1)C(C)(C)C (racemic) [rac-7]
7.07

Note down pEC50 recorded for CCCC(N(NC(=O)c1ccc(OC)cc1)C(=O)c1cc(C)cc(C)c1)C(C)(C)C (racemic) [rac-13]
~7.00

Note down pEC50 recorded for CCCC(N(NC(=O)c1ccc2ccccc2c1)C(=O)c1cc(C)cc(C)c1)C(C)(C)C (racemic) [rac-24]
~6.30

Note down pEC50 recorded for C=CCC(C1CCCCC1)N(NC(=O)c1cccc(OC)c1C)C(=O)c1cc(OC)c(C)c(OC)c1 (racemic) [rac-61]
~5.48

Note down pEC50 recorded for CCCC(N(NC(=O)c1ccccc1F)C(=O)c1cc(C)cc(C)c1)C(C)(C)C (racemic) [rac-5]
7.09
